Assign log10(residence time) to each entry below.
System: BTK T474S (Homo sapiens (Human), UniProt Q06187, T474S)
Sequence (Q06187 whole entry T474S): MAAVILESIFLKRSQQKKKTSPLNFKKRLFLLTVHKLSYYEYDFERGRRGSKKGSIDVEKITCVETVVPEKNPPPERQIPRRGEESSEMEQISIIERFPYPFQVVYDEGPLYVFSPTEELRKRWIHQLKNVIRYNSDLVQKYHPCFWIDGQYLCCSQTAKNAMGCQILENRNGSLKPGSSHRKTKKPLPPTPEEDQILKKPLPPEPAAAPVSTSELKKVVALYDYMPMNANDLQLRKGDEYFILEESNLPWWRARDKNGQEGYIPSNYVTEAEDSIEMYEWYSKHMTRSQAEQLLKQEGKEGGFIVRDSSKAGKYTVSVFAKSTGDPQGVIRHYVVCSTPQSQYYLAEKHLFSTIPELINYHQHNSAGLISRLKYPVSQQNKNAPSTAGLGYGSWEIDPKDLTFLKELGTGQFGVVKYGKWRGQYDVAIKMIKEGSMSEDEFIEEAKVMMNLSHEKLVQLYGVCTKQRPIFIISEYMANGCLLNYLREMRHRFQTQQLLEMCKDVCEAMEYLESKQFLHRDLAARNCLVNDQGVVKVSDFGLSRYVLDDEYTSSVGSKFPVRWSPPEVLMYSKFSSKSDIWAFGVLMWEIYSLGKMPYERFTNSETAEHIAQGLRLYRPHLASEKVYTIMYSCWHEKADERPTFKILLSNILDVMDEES
Assay: Binding kinetics measurements (Surface Plasmon Resonance) on BTK T474S
Particulars: SPR binding kinetics, BTK T474S; read-out: Tau (h) BTK T474S (Act); target residence time (converted)
Note the log scale: values are log10 of residence time expressed in h.

# annotated cases, reported log10(residence time) shown
Compound	log10(residence time)
C[C@@H]1CCn2nc(-c3ccc(C(=O)Nc4cc(C(F)(F)F)ccn4)cc3)c3c(N)ncc(c32)/C=C/CSCC(=O)N1	0.39
Nc1ncc2c3c1c(-c1ccc(C(=O)Nc4cc(C(F)(F)F)ccn4)cc1)nn3[C@@H]1CCC[C@H](C1)C(=O)NCCCC/C=C\C2 [Example 85b]	0.64
Nc1ncc2c3c1c(-c1ccc(C(=O)Nc4cc(C(F)(F)F)ccn4)cc1)nn3[C@@H]1CCC[C@H](C1)NC(=O)CCNC/C=C/2	0.56
Nc1ncc2c3c1c(-c1ccc(C(=O)Nc4ccccn4)cc1)nn3C1CCC[C@H](C1)NC(=O)CCCCC/C=C/2	0.50
C[C@@H]1CCn2nc(-c3ccc(C(=O)Nc4cc(C(F)(F)F)ccn4)cc3)c3c(N)ncc(c32)/C=C/CCN2CC[C@H]2C(=O)N1	0.58
NC(=O)[C@H]1CCN(c2ncnc(N)c2F)C[C@@H]1N1CCC[C@@H](Nc2cc(Cl)cc(C(F)(F)F)c2)C1=O [vecabrutinib, reference compound]	-1.15

Record log10(residence time) for all entries; do not skip any.
1. Nc1ncc2c3c1c(-c1ccc(C(=O)Nc4cc(C(F)(F)F)ccn4)cc1)nn3[C@@H]1CCC[C@H](C1)NC(=O)[C@H]1CN(C/C=C/2)CCN1
2. C[C@@H]1C[C@@H](C)n2nc(-c3ccc(C(=O)Nc4cc(C(F)(F)F)ccn4)cc3)c3c(N)ncc(c32)/C=C/COCCC(=O)N1

1: 0.62; 2: 0.29

Record log10(residence time) for all entries; do not skip any.
1. Nc1ncc2n3c(nc(-c4ccc(C(=O)Nc5cc(C(F)(F)F)ccn5)cc4)c13)[C@@H]1CCC[C@H](C1)NC(=O)CCC/C=C/2
2. Nc1ncc2c3c1c(-c1ccc(C(=O)Nc4cc(C(F)(F)F)ccn4)cc1)nn3[C@@H]1CC[C@H](C1)NC(=O)CCOC/C=C/2
3. Nc1ncc2c3c1c(-c1ccc(C(=O)Nc4cc(C(F)(F)F)ccn4)cc1)nn3[C@@H]1CCC[C@H](C1)NC(=O)CCOCC/C=C/2
4. C[C@@H]1CCn2nc(-c3ccc(C(=O)Nc4cc(C(F)(F)F)ccn4)cc3)c3c(N)ncc(c32)/C=C/COCC(=O)N1
5. Nc1ncc2c3c1c(-c1ccc(C(=O)Nc4cc(C(F)(F)F)ccn4)cc1)nn3[C@@H]1CCC[C@H](C1)NC(=O)[C@@H]1CCN(C/C=C/2)C1
6. CN1C/C=C/c2cnc(N)c3c(-c4ccc(C(=O)Nc5cc(C(F)(F)F)ccn5)cc4)nn(c23)[C@@H]2CCC[C@H](C2)NC(=O)CC1

0.48
0.50
0.25
0.42
0.80
0.94

Record log10(residence time) for all entries; do not skip any.
1. C[C@@H]1CC(=O)N[C@@H]2CCC[C@H](C2)n2nc(-c3ccc(C(=O)Nc4cc(C(F)(F)F)ccn4)cc3)c3c(N)ncc(c32)/C=C/CCN1C
2. C[C@@H]1CCn2nc(-c3ccc(C(=O)Nc4cc(C(F)(F)F)ccn4)cc3)c3c(N)ncc(c32)/C=C/CCCC(=O)N1
3. N#Cc1ccnc(NC(=O)c2ccc(-c3nn4c5c(cnc(N)c35)/C=C/CCCCCC(=O)N[C@@H]3CC[C@@H]4C3)cc2)c1

1: 0.92; 2: 0.27; 3: 0.01

Record log10(residence time) for all entries; do not skip any.
1. COc1ccc(F)cc1C(=O)NCc1ccc(-c2nn3c4c(cnc(N)c24)/C=C/CCCCCC(=O)N[C@@H]2CCC[C@@H]3C2)cc1
2. CN1C/C=C/c2cnc(N)c3c(-c4ccc(C(=O)Nc5cc(C(F)(F)F)ccn5)cc4)nn(c23)[C@@H]2CCC[C@H](C2)NC(=O)CCC1
3. C[C@@H]1CC(=O)N[C@@H]2CCC[C@H](C2)n2nc(-c3ccc(C(=O)Nc4cc(C#N)ccn4)cc3)c3c(N)ncc(c32)/C=C/CCO1
4. Nc1ncc2c3c1c(-c1ccc(C(=O)Nc4cc(C(F)(F)F)ccn4)cc1)nn3[C@@H]1CCCN(C1)C(=O)CCCCCC(O)/C=C/2 (stereo partly drawn)
5. C[C@@H]1CC(=O)N[C@@H]2CC[C@H](C2)n2nc(-c3ccc(C(=O)Nc4cc(C#N)ccn4)cc3)c3c(N)ncc(c32)/C=C/CCN1
6. Nc1ncc2c3c1c(-c1ccc(C(=O)Nc4cc(C(F)(F)F)ccn4)cc1)nn3[C@@H]1CCC[C@H](C1)NC(=O)CCOC/C=C/2
7. CN1C/C=C/c2cnc(N)c3c(-c4ccc(C(=O)Nc5cc(C(F)(F)F)ccn5)cc4)nn(c23)[C@@H]2CCC[C@H](C2)NC(=O)CCCC1

1: 1.13; 2: 0.98; 3: 0.31; 4: 0.48; 5: 0.75; 6: 0.42; 7: 0.44
